- System: NCI/ADR-RES
- assayProcedure: NCI tumour cell line growth inhibition, 48 h
Calls of active or inactive are those of the source. No stated cut-off is given here; in the data, active = GI50 up to about 1.1 µM and inactive = higher.
valueKind: GI50

Reference set (5 entries):
Could you share which GI50 value was measured for C[n+]1c(-c2ccc(/C=N/NC(=O)C(=O)N/N=C/c3ccc(-c4cn5ccccc5[n+]4C)cc3)cc2)cn2ccccc21 ?
> 100 µM (inactive)

Endpoint output: GI50 of Cc1ccc(Nc2nc(O)c3[nH]cnc3n2)cc1CO . Value?
15.4 µM (inactive)

Which GI50 value belongs to CCCCCn1cc2c3c(cccc31)C1C=C(C)CN(C)[C@@H]1C2.Cc1ccc(C(=O)OC(C(=O)O)C(OC(=O)c2ccc(C)cc2)C(=O)O)cc1 (centres undefined) ?
6.17 µM (inactive)

Returns the measured GI50 for the input molecule. Input: COC(=O)[C@@]12C(=O)C(C)C(=O)[C@]1(C)C(C)=C[C@H]1[C@]3(C=O)CC[C@H](OC(C)=O)C(C)(C)[C@H]3CC[C@@]12C (some centres undefined)
> 100 µM (inactive)

Looking for the measured GI50 of O=C1OCCC12CN(Cc1ccccc1)N=N2 (centres undefined) , can you help?
> 100 µM (inactive)

Others:
What does the record list as GI50 for C=C1C(=O)OC2/C=C(\C)CC/C=C(\C)CC(OC(=O)/C(=C/CO)CO)[C@@H]12 (some centres undefined) ?
20 µM (inactive)

For CC(=O)c1c(SCCN2CCCC2)n(-c2ccccc2)c(=S)n(-c2ccccc2)c1=O , what is its reported GI50?
26.9 µM (inactive)

The reported numbers originate from ChEMBL document CHEMBL1201862.
